test system: SK-OV-3; assay: NCI tumour cell line growth inhibition, 48 h
Activity calls are given as the source filed them. Cut-off read from the data, not from the text of the source: active = GI50 up to about 1.1 µM and inactive = higher.
Below, each of the compounds is paired with its reported GI50 value.

1) O=[N+]([O-])C(/C=N/Nc1ccccc1)/C=N/Nc1ccccc1 | > 100 µM (inactive)
2) O=C(Nc1ccccc1)c1cc(S(=O)(=O)NC2=Nc3ccc(Cl)cc3C(c3ccccc3)N2)c(SSc2cc(Cl)c(C(=O)Nc3ccccc3)cc2S(=O)(=O)NC2=Nc3ccc(Cl)cc3C(c3ccccc3)N2)cc1Cl (stereo not given) | > 100 µM (inactive)

Problem: # query: GI50 of entry CC(=O)OCC(OC(C)=O)C(OC(C)=O)C(/C=N\Nc1nc2ccccc2c(=O)[nH]1)OC(C)=O (stereo not given)
Solution: > 100 µM (inactive)

Problem: Further, for Cc1cs/c(=N/c2ccccc2)n1CCC(O)(P(=O)(O)O)P(=O)(O)O ?
Solution: > 100 µM (inactive)

Problem: Further, for O=C(/C=C/c1ccc(O)c(O)c1O)OCCc1ccccc1 ?
Solution: 90.8 µM (inactive)

----------
tested on: ACHN; assay: NCI tumour cell line growth inhibition, 48 h
Active and inactive are the calls of the source. Rule as the data show it: active = GI50 up to about 1.1 µM and inactive = higher.
Parameter call: string, one of true = active, false = inactive

1) CC1CNC(c2cccc(OCc3ccc(COc4cccc(C5=NC(C)CN5)c4)cc3)c2)=N1 (stereo unspecified) | false

Problem: // outcome(item) with item = CC(=O)OCC1OC(NC(=S)Nn2c(=O)[nH]c3ccccc3c2=O)C(OC(C)=O)C(OC(C)=O)C1OC(C)=O (stereo unspecified)
Solution: false

----------
tested on: OVCAR-8; test: NCI tumour cell line growth inhibition, 48 h
Activity calls are given as the source filed them. No stated cut-off is given here; in the data, active = GI50 up to about 1.1 µM and inactive = higher.
assayMetric: GI50

Known GI50 results, listed for orientation:
1) OC(c1ccccc1)(c1ccccc1)c1cccnc1 | > 100 µM (inactive)
2) CCN(CC)C1Oc2cc3c(cc2C(c2ccc(OC)cc2)C1C)OCO3 (stereo unspecified) | 19.5 µM (inactive)
3) Cc1cn(C2CC(N(O)C(N)=O)C(CO)O2)c(=O)[nH]c1=O (stereo unspecified) | > 100 µM (inactive)
4) N=C(N)N/N=C/c1c(-c2ccc(Cl)c([N+](=O)[O-])c2)nc2sc(Cl)cn12 | 1.77 µM (inactive)
5) COc1cccc(-c2ccc3c4c2O[C@H]2C(=O)CC[C@@]5(O)[C@@H](C3)N(CC3CC3)CC[C@]425)c1 | 18.5 µM (inactive)

Problem: # query: GI50 of entry O=C1CCCC1NC(=O)C(F)(F)F (stereo unspecified)
Solution: > 100 µM (inactive)

Problem: Further, for CC(C)n1c(=O)n(-c2ccccc2)n(C(C)(C)C)c1=O ?
Solution: > 100 µM (inactive)

Problem: Further, for Cc1ccc(S(=O)(=O)NN=C2C(C)(C)CC2(C)C)cc1 ?
Solution: > 100 µM (inactive)

Problem: Further, for CC(=O)NNc1nc(C)c(C(/C=C/c2ccc([N+](=O)[O-])cc2)=N/NC(N)=S)s1 ?
Solution: > 100 µM (inactive)

Problem: Further, for C[P+](C)(CC(F)(F)F)c1ccccc1 ?
Solution: > 100 µM (inactive)

Problem: Further, for CCOC(=O)C1(N)CCc2[nH][nH]c(=O)c2C1 (stereo unspecified) ?
Solution: > 100 µM (inactive)
